Test: self-splicing fitness, log relative to wild type (ln ratio); higher = more splicing; Tetrahymena group I intron in knt gene, E. coli kanamycin selection, DiMSum; sequences stand for … in CUCUCU…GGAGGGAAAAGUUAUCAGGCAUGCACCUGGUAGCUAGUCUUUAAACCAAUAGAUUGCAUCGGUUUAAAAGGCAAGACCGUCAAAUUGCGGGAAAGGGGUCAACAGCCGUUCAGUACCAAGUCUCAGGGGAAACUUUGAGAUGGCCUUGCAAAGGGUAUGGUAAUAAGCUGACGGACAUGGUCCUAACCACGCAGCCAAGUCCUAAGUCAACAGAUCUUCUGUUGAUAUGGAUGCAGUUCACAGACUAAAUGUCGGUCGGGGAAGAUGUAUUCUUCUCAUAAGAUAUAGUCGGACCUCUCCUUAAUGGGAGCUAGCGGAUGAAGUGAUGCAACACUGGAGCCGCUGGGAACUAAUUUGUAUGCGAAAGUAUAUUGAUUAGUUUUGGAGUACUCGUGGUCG;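 note: selection with 25 µg/mL kanamycin versus none on LB agar overnight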
Conditions: 37 °C
PROPERTY: self-splicing fitness (ln)
// response body must contain only the number

CGUGAGCAAUAUUACGCGGA    -1.62
UGUUAGCAAUAUUACGGUGG    -0.147
GGAAAGCAAUAUUACGCCUU    -1.29
UCAGAGCAAUAUUACGUACU    -2.24
UUGUAGCAAUAUUACGAUGU    -0.334
CACCAGCAAUAUUACGGCGC    -1.5
GCAUAGCAAUAUUACGUUUC    -3.01
CAACAGCAAUAUUACGAGUA    -1.04
CUCUAGCAAUAUUACGUUUC    -2.62
ACACAGCAAUAUUACGGACC    -0.524

Task: Check the records and state self-splicing fitness (ln) for GGCUAGCAAUAUUACGGACU
Result: 0.198

Task: Check the records and state self-splicing fitness (ln) for CAACAGCAAUAUUACGACCC
Result: -2.62

Task: Check the records and state self-splicing fitness (ln) for AAAUAGCAAUAUUACGCCUU
Result: 0.557

Task: Check the records and state self-splicing fitness (ln) for UAUUAGCAAUAUUACGCCAA
Result: -1.68

Task: Check the records and state self-splicing fitness (ln) for AACGAGCAAUAUUACGAACA
Result: -1.9

Task: Check the records and state self-splicing fitness (ln) for GUCCAGCAAUAUUACGAACA
Result: -0.801

* * *

Each entry below carries its reported self-splicing fitness (ln).
Test: self-splicing fitness, log relative to wild type (ln ratio); higher = more splicing; Tetrahymena group I intron in knt gene, E. coli kanamycin selection, DiMSum; sequences stand for … in CUCUCU…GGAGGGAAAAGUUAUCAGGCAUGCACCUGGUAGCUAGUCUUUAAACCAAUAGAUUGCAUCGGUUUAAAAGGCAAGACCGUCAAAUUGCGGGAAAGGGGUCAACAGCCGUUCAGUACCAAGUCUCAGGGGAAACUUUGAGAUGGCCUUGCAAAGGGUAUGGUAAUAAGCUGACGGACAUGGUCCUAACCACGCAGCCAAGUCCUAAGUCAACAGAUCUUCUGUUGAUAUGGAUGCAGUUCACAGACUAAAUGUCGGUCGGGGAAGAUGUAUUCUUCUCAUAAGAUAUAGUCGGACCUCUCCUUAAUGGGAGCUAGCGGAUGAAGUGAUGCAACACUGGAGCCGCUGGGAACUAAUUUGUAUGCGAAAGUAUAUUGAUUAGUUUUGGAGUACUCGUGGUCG
Settings: 37 °C
// response body must contain only the number

Below, 2 sequences whose answers are already recorded.
UAGAAGCAAUAUUACGUGCC    -0.962
CUCCAGCAAUAUUACGUACC    -1.19

--- query ---
Task: Check the records and state self-splicing fitness (ln) for AAAUAGCAAUAUUACGUACA
Result: -0.523
